- PROTOCOL: NCI Yeast Anticancer Drug Screen. Data for the bub3 strain (AID 167)
- EXPERIMENTAL SETUP: S. cerevisiae bub3 mutant strain, at 50.0 µM (retest, dose inferred, filed as 5.0), stronger effect = higher value
About 79,000 compounds went through this panel and 15% of them were active in at least one assay; those are over-represented in the sample as a whole.
Label scheme for growth inhibition: lower than 70% is 0, 70% and above is 1.

INSERT INTO measurements (compound, class) VALUES
  ('CCc1ccccc1SC(C)=O', 1),
  ('CCN(CC)CCSCCCNc1cc(C)nc2c1ccc1c2ccc2c(NCCCSCCN(CC)CC)cc(C)nc21', 0),
  ('FC(F)(F)c1ccc(NC(=S)SCc2ccc(Cl)cc2)cc1', 1),
  ('CCCCCCCCCCCCNC(=O)C[n+]1cccc(C(=O)Nc2ccccc2)c1', 1),
  ('O=C(NNc1ccccc1)C(O)C(O)C(O)C(O)C(O)C(O)C(O)CO (configuration not stated)', 1),
  ('CC(C)c1cc(C(C)C)c(Cl)c(Cl)c1O (tested in a mixture with another compound)', 1),
  ('CC(=O)OC1CCCc2c1nc1ccccc1[n+]2[O-] (configuration not stated)', 0),
  ('COc1cc(OC)c(C(=O)[O][Sn]([c]2ccccc2)([c]2ccccc2)[c]2ccccc2)cc1OC', 1),
  ('CCCCCCCCCCCC(=O)OCCOC(=O)CCCCCCCCCCC', 0),
  ('N#CC(C(=O)C(=O)NC1C2CC3CC(C2)CC1C3)c1c(Cl)cccc1Cl (configuration not stated)', 0);

Has c1ccc(CSc2nnc(SCc3ccccc3)c3[nH]cnc23)cc1 a recorded growth inhibition greater than or equal to 70%?
0

Form field: growth inhibition at least 70%? Entry: C=C1C(=O)OC(C)(C)C1c1ccc(Cl)c(Cl)c1 (configuration not stated)
1

Tell me whether growth inhibition is at least 70% here: c1ccc(N=C2SC3=NCCN3C2=Nc2ccccc2)cc1
1

Entry COC(=O)C(O)(/C(=N\O)c1ccccc1)c1ccccc1 (configuration not stated) : is its growth inhibition no less than 70%?
0

I'd appreciate it if you could say whether Nc1ccccc1CCc1ccccc1 has growth inhibition at least equal to 70%.
1

Entry CCCCCCCCN1C(=O)c2ccccc2S1(=O)=O : is its growth inhibition no less than 70%?
1

Could you tell me if the measured growth inhibition of C/C(=N\NC(=S)Nc1ccc(S(N)(=O)=O)cc1)c1ccccn1 reaches 70% or more?
1

Is growth inhibition for O=[N+]([O-])c1ccccc1OS(=O)(=O)c1ccccc1 at or above 70%?
0

Hello, I need to know if C/C(=N\Nc1n[nH]c(=S)n1N)c1c(O)cc(C)oc1=O has measured growth inhibition not below 70%. Thanks!
0

Item CSC(=S)SC(SC)S(C)(=O)=O (configuration not stated) with growth inhibition of 70% or above?
0

----------
For each entry below, report its growth inhibition value.
- PROTOCOL: NCI Yeast Anticancer Drug Screen. Data for the mec2-1 strain (AID 157)
- EXPERIMENTAL SETUP: S. cerevisiae mec2-1 strain, at 50.0 µM, stronger effect = higher value
Compounds without any hit were thinned out: in the full panel of roughly 79,000, 15% have a hit.
Answers are plain numbers, in %.

Known results for molecules:
INSERT INTO measurements (molecule, observed_measurement) VALUES
  ('CCOc1ccc(Nc2nc(C)c(C(=O)/C=C/c3ccc(Cl)cc3Cl)s2)cc1', 31.9),
  ('CC(=O)c1cc(I)c(O)c2ncccc12', 92.5),
  ('CC(=O)[O-].O=C(N/N=C/c1ccccc1[O-])c1ccccc1.[Zn+2]', 14.6),
  ('CCCCCCCCCCCCNCc1ccc(O)c(OC)c1', 97.4),
  ('Cc1cc(NCCCCCCCCNc2cc(C)nc3cc(N(C)C)ccc23)c2ccc(N(C)C)cc2n1', 90.5);

Dear colleague, could you send me growth inhibition for each of the items below? Thanks.
1. CN(C)[C@H]1CC[C@H]2[C@@H]3CCC4C[C@@H](NC(=O)NC(Cc5ccccc5)c5nccs5)CC[C@]4(C)[C@H]3CC[C@]12C (some centres not stated)
2. Cc1c(Cl)cccc1NC(=O)/C(Cl)=C(\Cl)C(=O)O
3. CCOC(=O)C1SC(=Nc2cccc(Cl)c2C)N=C1C (configuration not stated)
4. O=[N+]([O-])c1cccn2nc(C3OC(CO)C(O)C3O)nc12 (configuration not stated)
5. OC(CBr)c1cc(-c2ccccc2)nc2ccccc12 (configuration not stated)
6. CCCCCCCCCCN1CCN(C(=O)OCC)CC1
7. CC(=O)Nc1ccc(-c2nnc(SCC(=O)Nc3ccc(Cl)cc3Cl)o2)cc1

1: 63.9; 2: 99.8; 3: 88.1; 4: -4.8; 5: 18.1; 6: 72.2; 7: 97.4

// data source = PubChem BioAssay (NCI)
